# RUN DESCRIPTION: in vivo
# CONDITION SUMMARY: mouse, po, 38 mg/kg
PROPERTY LABEL: AUC (ng·h/mL)
Kindly answer with a numeric value in ng·h/mL, unit omitted.

Answer with the recorded AUC of CC1(CCl)C(C(=O)O)N2C(=O)CC2S1(=O)=O (stereo not shown) only.
4400

----------
# RUN DESCRIPTION: in vivo
# CONDITION SUMMARY: mouse, po, 50 mg/kg
# Source text: Compounds were solubilized in propylene glycol, except for the Hetacillin
Provide the recorded concentration at 0.5 h for the entries that follow.
Kindly answer with a numeric value in ng/mL, unit omitted.

Answer with the recorded concentration at 0.5 h of CC1(C)S[C@@H]2[C@H](NC(=O)[C@H](N)c3ccc(O)cc3)C(=O)N2[C@H]1C(=O)O [Amoxicillin, reference compound] only.
7000

Answer with the recorded concentration at 0.5 h of CC1(C)S[C@@H]2[C@H](NC(=O)[C@H](N)c3ccccc3)C(=O)N2[C@H]1C(=O)O [Ampicillin, reference compound] only.
4000

----------
Provide the recorded AUC for the entries that follow.
# RUN DESCRIPTION: in vivo
# CONDITION SUMMARY: mouse, po, 50 mg/kg
Kindly answer with a numeric value in ng·h/mL, unit omitted.

Answer with the recorded AUC of CC1(C)S[C@@H]2[C@H](NC(=O)[C@H](N)c3ccc(O)cc3)C(=O)N2[C@H]1C(=O)O [Amoxicillin, reference compound] only.
9500

Answer with the recorded AUC of CC1(C)S[C@@H]2[C@H](NC(=O)[C@H](N)c3ccccc3)C(=O)N2[C@H]1C(=O)O [Ampicillin, reference compound] only.
6200

----------
Provide the recorded concentration at 1 h for the entries that follow.
# RUN DESCRIPTION: in vivo
# CONDITION SUMMARY: mouse, po, 50 mg/kg
Kindly answer with a numeric value in ng/mL, unit omitted.

Answer with the recorded concentration at 1 h of CC1(C)S[C@@H]2[C@H](NC(=O)[C@H](N)c3ccccc3)C(=O)N2[C@H]1C(=O)O [Ampicillin, reference compound] only.
3300

Answer with the recorded concentration at 1 h of CC1(C)S[C@@H]2[C@H](NC(=O)[C@H](N)c3ccc(O)cc3)C(=O)N2[C@H]1C(=O)O [Amoxicillin, reference compound] only.
5000

----------
# RUN DESCRIPTION: in vivo
# CONDITION SUMMARY: mouse, po, 50 mg/kg, AUC
Provide the recorded AUC for the entries that follow.
Kindly answer with a numeric value in ng·h/mL, unit omitted.

Answer with the recorded AUC of CC1(C)S[C@@H]2[C@H](NC(=O)[C@H](N)c3ccc(O)cc3)C(=O)N2[C@H]1C(=O)O [Amoxicillin, reference compound] only.
15400

Answer with the recorded AUC of CC1(C)S[C@@H]2[C@H](NC(=O)[C@H](N)c3ccccc3)C(=O)N2[C@H]1C(=O)O [Ampicillin, reference compound] only.
6200

----------
# RUN DESCRIPTION: in vivo
# CONDITION SUMMARY: mouse, po, 50 mg/kg, Blood Level
Provide the recorded concentration at 0.5 h for the entries that follow.
Kindly answer with a numeric value in ng/mL, unit omitted.

Answer with the recorded concentration at 0.5 h of CC1(C)S[C@@H]2[C@H](NC(=O)[C@H](N)c3ccccc3)C(=O)N2[C@H]1C(=O)O [Ampicillin, reference compound] only.
4000

Answer with the recorded concentration at 0.5 h of CC1(C)S[C@@H]2[C@H](NC(=O)[C@H](N)c3ccc(O)cc3)C(=O)N2[C@H]1C(=O)O [Amoxicillin, reference compound] only.
11000

----------
Provide the recorded concentration at 1 h for the entries that follow.
# RUN DESCRIPTION: in vivo
# CONDITION SUMMARY: mouse, po, 50 mg/kg, Blood Level
Kindly answer with a numeric value in ng/mL, unit omitted.

Answer with the recorded concentration at 1 h of CC1(C)S[C@@H]2[C@H](NC(=O)[C@H](N)c3ccccc3)C(=O)N2[C@H]1C(=O)O [Ampicillin, reference compound] only.
3300

Answer with the recorded concentration at 1 h of CC1(C)S[C@@H]2[C@H](NC(=O)[C@H](N)c3ccc(O)cc3)C(=O)N2[C@H]1C(=O)O [Amoxicillin, reference compound] only.
9000

----------
# RUN DESCRIPTION: in vivo
# CONDITION SUMMARY: mouse, po, 38 mg/kg
PROPERTY LABEL: concentration at 0.5 h
Note: state the figure and append the unit.

Answer with the recorded concentration at 0.5 h of CC1(CCl)C(C(=O)O)N2C(=O)CC2S1(=O)=O (stereo not shown) only.
2300 ng/mL
